# System: AMPK purified from rat liver
# Measurement Description: Allosteric activation of purified rat liver AMPK (SAMS peptide, cell-free)
# Format: biochemical
# Measurement Conditions: 200 μM ATP; read-out: IC50 (concentration giving half-maximal inhibition)
Readout Label: pIC50
Hey, just a heads up that pIC50 is the negative log base 10 of the concentration in molar.

**Query** I have this compound here, Nc1ncnc2c1ncn2[C@@H]1O[C@H](COP(=O)(O)O)[C@@H](O)[C@H]1O [AMP, reference compound] , and I need its recorded pIC50.
**Result** 2.80

----------
# System: rat liver AMPK
# Measurement Description: Cell-free inhibition of Thr172 dephosphorylation by PP2Cα
# Assay type: biochemical
# Measurement Conditions: fit of AMPK activity as a function of CoMP concentration; read-out: EC50 of protection against inactivation and Thr172 dephosphorylation by PP2Cα
Readout Label: pEC50
Scale: negative log10 of molar concentration, which is what pEC50 denotes.

**Query** State the recorded pEC50 for this entry: Nc1ncnc2c1ncn2[C@@H]1O[C@H](COP(=O)(O)O)C[C@H]1O [CoMP, cordycepin 5′-monophosphate]
**Result** 4.17

----------
# Measurement Description: Measurement of cordycepin in cell medium of HepG2 cells (LC-MS)
# Format: in vitro ADME, human
# Measurement Conditions: human, 100 μM added
Readout Label: half-life at 100 μM

**Query** So what's the measured half-life at 100 μM for this one? Nc1ncnc2c1ncn2[C@@H]1O[C@H](CO)C[C@H]1O [cordycepin, 3′-deoxyadenosine]
**Result** ~1.33 h

----------
# Test system: HepG2 cells
# Measurement Description: Clonal survival assay, HepG2
# Type: cell-based, human
# Measurement Conditions: Homo sapiens, 8 h treatment, read-out: half-maximal effect on cell survival
Readout Label: pEC50
# pEC50 is unitless: minus log10 of the molar concentration; print number only

**Query** Reported pEC50, molecule Nc1ncnc2c1ncn2[C@@H]1O[C@H](CO)C[C@H]1O [cordycepin, 3′-deoxyadenosine] : ____
**Result** 4.15
